The reported measurements were obtained from patent US9573966B2.

# System: HL-60 cells
# Assay: Inhibition of HL-60 leukemic cell line proliferation (WST-1)
# Assay type: cell-based, human
# Measurement Parameters: Homo sapiens, 48 h; cytotoxicity on HL-60 cells, two days incubation, WST-1 read-out
The reader will find reported IC50 values listed item by item below.
Endpoint Name: IC50 (µM)

INSERT INTO assay_data (compound, limit_sign, test_result) VALUES
  ('Nc1nc(N2CCN(C(=O)COc3ccc(Br)cc3)CC2)c2nc(-c3ccc(F)cc3)sc2n1 [Example 128]', '=', 6.47),
  ('COc1ccccc1NC(=O)N1CCN(c2nc(N)nc3sc(-c4ccc(F)cc4)nc23)CC1 [Example 219]', '=', 6.19),
  ('Nc1nc(N2CCN(C(=O)COc3ccc(Cl)cc3)CC2)c2nc(C3(c4ccc(Cl)cc4)CC3)sc2n1 [Example 117]', '>', 10),
  ('CSc1nc2c(N3CCN(C(=O)COc4ccc(Cl)cc4)CC3)nc(N)nc2[nH]1 [Example 424]', '=', 0.01);
